tgt: human KDR on cells (human, UniProt P35968 20-1356)
Sequence (P35968 20-1356): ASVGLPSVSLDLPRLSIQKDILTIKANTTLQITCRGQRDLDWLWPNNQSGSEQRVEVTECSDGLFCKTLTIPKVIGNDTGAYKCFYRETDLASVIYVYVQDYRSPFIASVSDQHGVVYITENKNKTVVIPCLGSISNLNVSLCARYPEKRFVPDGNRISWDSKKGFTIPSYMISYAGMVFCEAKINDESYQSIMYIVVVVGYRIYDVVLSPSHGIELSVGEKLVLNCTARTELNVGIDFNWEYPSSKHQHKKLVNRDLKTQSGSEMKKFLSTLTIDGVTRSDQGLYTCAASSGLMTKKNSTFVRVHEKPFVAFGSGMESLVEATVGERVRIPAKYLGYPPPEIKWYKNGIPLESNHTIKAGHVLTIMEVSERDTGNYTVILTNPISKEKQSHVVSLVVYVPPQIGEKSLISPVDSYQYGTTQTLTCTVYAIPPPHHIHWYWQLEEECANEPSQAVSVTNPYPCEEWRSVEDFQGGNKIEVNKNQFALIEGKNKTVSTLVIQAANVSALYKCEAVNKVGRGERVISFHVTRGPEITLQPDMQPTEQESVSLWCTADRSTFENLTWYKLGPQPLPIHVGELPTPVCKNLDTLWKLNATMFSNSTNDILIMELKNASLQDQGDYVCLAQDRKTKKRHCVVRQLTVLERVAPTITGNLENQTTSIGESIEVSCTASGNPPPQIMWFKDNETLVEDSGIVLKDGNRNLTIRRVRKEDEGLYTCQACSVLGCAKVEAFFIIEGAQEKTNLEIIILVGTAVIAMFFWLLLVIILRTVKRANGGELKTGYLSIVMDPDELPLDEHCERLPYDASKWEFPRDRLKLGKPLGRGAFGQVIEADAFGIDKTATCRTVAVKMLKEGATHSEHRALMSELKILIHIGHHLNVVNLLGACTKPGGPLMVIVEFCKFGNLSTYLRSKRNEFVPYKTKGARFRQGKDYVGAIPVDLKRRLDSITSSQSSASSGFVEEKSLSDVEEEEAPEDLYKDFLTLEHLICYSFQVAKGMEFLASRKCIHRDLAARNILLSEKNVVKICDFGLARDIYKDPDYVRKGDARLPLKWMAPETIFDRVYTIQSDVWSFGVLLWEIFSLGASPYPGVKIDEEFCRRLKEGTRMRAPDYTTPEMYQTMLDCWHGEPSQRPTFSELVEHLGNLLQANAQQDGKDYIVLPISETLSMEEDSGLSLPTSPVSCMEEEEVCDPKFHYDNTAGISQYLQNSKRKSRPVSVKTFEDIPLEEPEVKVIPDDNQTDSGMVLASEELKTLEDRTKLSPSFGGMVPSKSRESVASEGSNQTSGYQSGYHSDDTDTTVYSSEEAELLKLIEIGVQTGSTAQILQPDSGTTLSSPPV
assay-info: cell-based or functional assay
A collection of binders and their measured % Inhibition (Average) of VEGF-C-mediated KDR activity, antibody 1 nM

Complete the entry with % Inhibition (Average) of VEGF-C-mediated KDR activity, antibody 1 nM for 33E1 (antibody, V domains shown) VH: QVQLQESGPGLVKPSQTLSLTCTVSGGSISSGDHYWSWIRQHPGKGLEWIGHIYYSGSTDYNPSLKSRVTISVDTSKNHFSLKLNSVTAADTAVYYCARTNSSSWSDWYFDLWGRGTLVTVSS VL: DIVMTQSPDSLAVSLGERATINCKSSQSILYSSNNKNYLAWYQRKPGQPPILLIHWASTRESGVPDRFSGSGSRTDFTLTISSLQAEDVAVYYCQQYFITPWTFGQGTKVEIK 32%

Complete the entry with % Inhibition (Average) of VEGF-C-mediated KDR activity, antibody 1 nM for 24B3 (antibody, V domains shown, Purified fully human monoclonal antibody from XenoMouse hybridoma (IgG2 or IgG4 strains); also called MAb 24B3) VH: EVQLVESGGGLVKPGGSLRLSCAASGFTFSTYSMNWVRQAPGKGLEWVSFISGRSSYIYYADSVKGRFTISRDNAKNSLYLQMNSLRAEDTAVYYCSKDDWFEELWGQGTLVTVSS VL: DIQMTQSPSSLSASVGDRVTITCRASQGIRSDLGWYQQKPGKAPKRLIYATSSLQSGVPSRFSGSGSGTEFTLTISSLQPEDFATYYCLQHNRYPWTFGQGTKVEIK 30%

Complete the entry with % Inhibition (Average) of VEGF-C-mediated KDR activity, antibody 1 nM for 21H6 (antibody, V domains shown) VH: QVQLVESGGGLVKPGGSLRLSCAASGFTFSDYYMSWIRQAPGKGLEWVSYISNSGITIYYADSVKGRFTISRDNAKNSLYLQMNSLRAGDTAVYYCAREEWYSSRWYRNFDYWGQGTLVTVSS VL: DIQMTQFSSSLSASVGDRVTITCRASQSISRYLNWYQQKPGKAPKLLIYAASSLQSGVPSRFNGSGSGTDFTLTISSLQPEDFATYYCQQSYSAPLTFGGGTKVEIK 28%
